Reported gcPBM binding intensity (ln) values for a set of sequences
# Test system: PfAP2-G AP2 domain (GST-tagged)
# Procedure Text: gcPBM binding intensity (ln(normalized median fluorescence intensity)); higher = stronger DNA binding
In all, about 25,000 sequences were measured (“ln(normalized median fluorescence intensity)”: median about 10, highest 2% from about 12 on). Shown is part of a subset that was picked to be rich in the highest values.
Respond with the number and no other words.

TAGTTCCTCAAAAATTTCCTTTGTCATTTTATTCAC [GTGCAC_negctrl_site20]; 10.2
ACATACATACACCCACGTACGTACCGAAACACCACC [XGTACX_site1212]; 11.7
TAAGAAATAAATAGTACACACATAGACACCCACCCA [CACACA_site8429]; 11.7

// ACATACATACCCCCACGTACGTACCGAAACACCACC [XGTACX_site1982] : gcPBM binding intensity (ln) value = 11.5

// TAAGAAATAAATAGTACACACATAGACACCCACCGA [CACACA_site1516] : gcPBM binding intensity (ln) value = 11.5

// AATTTTCAATAGTATACACACAATTCTATAAATATA [CACACA_site6650] : gcPBM binding intensity (ln) value = 9.84

// TATTCCAAAAATGTGTGTACATAAATACAATATTAT [XGTACX_site2653] : gcPBM binding intensity (ln) value = 11.4

// CATACATACATACATACATGCATACATACATACATA [TGCATGCA_site218] : gcPBM binding intensity (ln) value = 10.5

// GCATAAGAAATAAATAGTACACACATAGACACACAC [XGTACX_site3095] : gcPBM binding intensity (ln) value = 11.6

// TCTATTTTCTTATGAATGCACTAATTTATAAAACGT : gcPBM binding intensity (ln) value = 10.1

---

# Test system: PfAP2-G AP2 domain (GST-tagged)
# Procedure Text: gcPBM binding intensity (ln(normalized median fluorescence intensity)); higher = stronger DNA binding
Whole data set: some 25,000 sequences, median “ln(normalized median fluorescence intensity)” near 10, cut for the highest 2% near 12. The entries come from a sample that favours the highest values as a whole.
Measurement Label: gcPBM binding intensity (ln)
Respond with the number and no other words.

Some sequences with recorded gcPBM binding intensity (ln):
CACAGACACCCATACACACACATACCCATATATATA [CACACA_site5023]; 10.4
AACATATACACGAACACACACACATATATATATATA [CACACA_site502]; 10.3
ATTATACAAAATGGTAAGGAAAAGGAAATTTTTTTT [CACACA_negctrl_site1090]; 9.77
TACATACACGGACACACACACATATATATATATATA [CACACA_site5883]; 11.3
ATATTGTGTTATAAATGTACACAATTTCCTTTCATA [XGTACX_site7481]; 11.3

// TTTCAAAGGAAATGGTGTACACAATTTTTCCTTTTT [XGTACX_site2340] : gcPBM binding intensity (ln) value = 11.7

// TTATTTTCATATAGGTGTACATAAAAATATTCTTAT [XGTACX_site8861] : gcPBM binding intensity (ln) value = 11.6

// CCCCCCCACGGACACACACACATACATACCACATAT [CACACA_site5303] : gcPBM binding intensity (ln) value = 11.7

// AAAAAAAAATGTCATGGTACACAATTTTTTCTTTTT [XGTACX_site4505] : gcPBM binding intensity (ln) value = 11

---

Reported gcPBM binding intensity (ln) values for a set of sequences
# System: PfAP2-G AP2 domain (GST-tagged)
# Procedure Text: gcPBM binding intensity (ln(normalized median fluorescence intensity)); higher = stronger DNA binding
In all, about 25,000 sequences were measured (“ln(normalized median fluorescence intensity)”: median about 10, highest 2% from about 12 on). Many of the other results were omitted from the sample, so the highest values are more common in it than they were.
Respond with the number and no other words.

Some sequences with recorded gcPBM binding intensity (ln):
GCACCAAAAAAAAGACGTACAGTTATATTAAAATAG [XGTACX_site8926]; 11.7
ATAAAAATAAAAAGATGTACGTATTTTTTTTTTTTT [XGTACX_site5329]; 11.6
TATATAATATATTTATGTACGTATTTAAAAATTTAT [XGTACX_site160]; 11.6

// TACATAAATACATACACACACATATAACCAATGTAG [CACACA_site5243] : gcPBM binding intensity (ln) value = 10.3

// TAAATAGATGTTTTATGTACGTATAAATAAAAAAAA [XGTACX_site3412] : gcPBM binding intensity (ln) value = 11.7

// TTATAATTGTAAGGTAGTACATATAAATCAAATAAT [XGTACX_site7190] : gcPBM binding intensity (ln) value = 11.5

// TATGTGTAATATTTTTGTACAGAAAAAAAAAAAAAA [XGTACX_site7075] : gcPBM binding intensity (ln) value = 10.8

// TTACATATTATACGAAGTACGTACAAATACTTATAT [XGTACX_site8598] : gcPBM binding intensity (ln) value = 11.7

// ATATAAAATAAATAAGTGCAGATAAATTTATGTGAC [GTGCAC_site9504] : gcPBM binding intensity (ln) value = 10.2

---

# Test system: PfAP2-G AP2 domain (GST-tagged)
# Procedure Text: gcPBM binding intensity (ln(normalized median fluorescence intensity)); higher = stronger DNA binding
In all, about 25,000 sequences were measured (“ln(normalized median fluorescence intensity)”: median about 10, highest 2% from about 12 on). This excerpt belongs to a sample that is enriched for the highest values.
Measurement Label: gcPBM binding intensity (ln)
Respond with the number and no other words.

// AAAAATATATAAACACGTACACACACATATATGTAT [XGTACX_site7436] : gcPBM binding intensity (ln) value = 11.6

// TACCTAAATAAATGGACACACACATATATATATATA [CACACA_site8407] : gcPBM binding intensity (ln) value = 10.8

// TATATCTGTAAATGCACACATATGTGGATATACTTA [CACACA_site5013] : gcPBM binding intensity (ln) value = 10.1

// AATAAACATATATGTACACACATATACATATATATA [CACACA_site2848] : gcPBM binding intensity (ln) value = 11.4

// ATAATAAACATATATGTACACACATATACATATATA [CACACA_site8924] : gcPBM binding intensity (ln) value = 11.3

// ACATAAATAATAAAAACACACATATGTACATATATA [CACACA_site1913] : gcPBM binding intensity (ln) value = 11.3

// TAAGTTATATGTACTACACACGTACACAAAATAAGA [CACACA_site9237] : gcPBM binding intensity (ln) value = 11.8

// ATATTATATTGGATGTTGCACTTAACAAAAGGATAT [GTGCAC_site9478] : gcPBM binding intensity (ln) value = 10.2

// AAACAAAATGGTAACACACACATATATAAATATGTA [CACACA_site6994] : gcPBM binding intensity (ln) value = 10.2

---

# System: PfAP2-G AP2 domain (GST-tagged)
# Procedure Text: gcPBM binding intensity (ln(normalized median fluorescence intensity)); higher = stronger DNA binding
Whole data set: some 25,000 sequences, median “ln(normalized median fluorescence intensity)” near 10, cut for the highest 2% near 12. Only a selection was taken, and the highest values are over-represented in it overall.
Measurement Label: gcPBM binding intensity (ln)

Some sequences with recorded gcPBM binding intensity (ln):
TTATATTTTATTATGTGTACGTATATAATATAATAT [XGTACX_site6230]; 11.6
ATAATAATATTGTGTACACAATAATTTGTCAAATCA [CACACA_site6019]; 11.7
AATAAATATAAAAATGCACACACACTAATAAAAAAA [CACACA_site8201]; 10.2
TATTTATAAATTTACACACACACATGTGAACATAAA [CACACA_site1909]; 10.2
ATTAAATACATTAACACACACACAAATAAATACATA [CACACA_site5583]; 10.2

// TATATTTTTTTTGTGCGTACATACCATTTTAATAAT [XGTACX_site2751] : gcPBM binding intensity (ln) value = 11.7

---

Reported gcPBM binding intensity (ln) values for a set of sequences
# System: PfAP2-G AP2 domain (GST-tagged)
# Procedure Text: gcPBM binding intensity (ln(normalized median fluorescence intensity)); higher = stronger DNA binding
Whole data set: some 25,000 sequences, median “ln(normalized median fluorescence intensity)” near 10, cut for the highest 2% near 12. The list comes from a sample in which the highest values are over-represented; it also holds close analogues and randomly drawn sequences.
Respond with the number and no other words.

Some sequences with recorded gcPBM binding intensity (ln):
ATATTTATATATATATGTACATATGTGTGTTTTTAT [XGTACX_site3956]; 10.9
TTTATTTATTTTTGTTGTACACTTGTATATATTATT [XGTACX_site6486]; 11.4
TTTATATTTAAAAGGATGCACTACAAATTCTAAATA; 10.3
TGCCTATTTTGGATGTGTACACATATATATATTTAT [XGTACX_site6741]; 11.7
AATTTTATTTAATTTTTTTGGGAAATGATAAAATTT [CACACA_negctrl_site934]; 9.88
TTACATATTTTTTAACGTACATAAATATATATGTAT [XGTACX_site8406]; 11.4
TGTTCTAATATTTGTTGTACATTTACATTTCTCTCT [XGTACX_site2585]; 11.1
TATATATATATATAATGTACAGAAAAAAAAAAAAAA [XGTACX_site6141]; 10.8
TTACCTCTTTGAAATATACACACTAAACATATCAAC [CACACA_site2455]; 10.1
TTATTAAATTTTTTTTGTACTTATATATATATATAT [XGTACX_site2443]; 11.2

// ACTTATAAAATAACATGTACAAATATTTATTATATA [XGTACX_site133] : gcPBM binding intensity (ln) value = 11

// CTATTTTGGATGTGTACACATATATATATTTATATT [CACACA_site5706] : gcPBM binding intensity (ln) value = 11.7

// TTTTTTATTTTTTGTTATATTTATAATAATTTATGA [XGTACX_negctrl_site260] : gcPBM binding intensity (ln) value = 9.58

// ATATATATTTATATATGTACATATTTTTGTGTATTT [XGTACX_site1183] : gcPBM binding intensity (ln) value = 11.3

// ATATGATCATTTTATCATTTTGCTTTTTCTTTTTTT [CACACA_negctrl_site1325] : gcPBM binding intensity (ln) value = 9.4

meta.source: the supplement of paper PMC11417369
